tested on: PCSK9 gene; test: PCSK9 gRNA/SpCas9 editing in primary cynomolgus hepatocytes (Tables 2, 22); assay type: cell-based, cynomolgus monkey; conditions: 2500 ng/RNA/mL; SpCas9 mRNA MS002 1:1 by weight
In the oligonucleotide strings, read from the 5' end, every base follows the letter of its sugar. An asterisk marks phosphorothioate; unmarked linkages are phosphodiester. Other units and linkages are bracketed, terminal groups are in braces. A string of capitals states the bases alone. m = 2'-O-methyl; r = 2'-OH (RNA)
Below: a set of entries, each annotated with reported Cyno Primary Hepatocyte Editing % 2500.

Sample records with Cyno Primary Hepatocyte Editing % 2500:
[[record]]
molecule = "GA163: PCSK9 gRNA; protospacer CGTCCTCGTCCTCCTGCGCA (SEQ ID NO: 157) (nucleic acid, sugars from the 5' end m3 r94 m3, linkages s3 o93 s3 (s phosphorothioate, o phosphodiester), T or U not given here) guide: CGUCCUCGUCCUCCUGCGCAGUUUUAGAGCUAGAAAUAGCAAGUUAAAAUAAGGCUAGUCCGUUAUCAACUUGAAAAAGUGGCACCGAGUCGGUGCUUUU"
quantity = "Cyno Primary Hepatocyte Editing % 2500"
observed = "49.50%"

[[record]]
molecule = "GA157: PCSK9 gRNA; protospacer GCCGTCCTCCTCGGAACGCA (SEQ ID NO: 151) (nucleic acid) guide: mG*mC*mC*rGrUrCrCrUrCrCrUrCrGrGrArArCrGrCrArGrUrUrUrUrArGrArGrCrUrArGrArArArUrArGrCrArArGrUrUrArArArArUrArArGrGrCrUrArGrUrCrCrGrUrUrArUrCrArArCrUrUrGrArArArArArGrUrGrGrCrArCrCrGrArGrUrCrGrGrUrGrCrU*mU*mU*mU"
quantity = "Cyno Primary Hepatocyte Editing % 2500"
observed = "13.78%"


Here is the next item to consider.
Q: Any idea what Cyno Primary Hepatocyte Editing % 2500 was measured for GA168: PCSK9 gRNA; protospacer CTTGGCGCAGCGGTGGAAGG (SEQ ID NO: 162) (nucleic acid, sugars from the 5' end m3 r94 m3, linkages s3 o93 s3 (s phosphorothioate, o phosphodiester), T or U not given here) guide: CUUGGCGCAGCGGUGGAAGGGUUUUAGAGCUAGAAAUAGCAAGUUAAAAUAAGGCUAGUCCGUUAUCAACUUGAAAAAGUGGCACCGAGUCGGUGCUUUU ?
Ans: 41.49%
